Entries and their pIC50
# SYSTEM_NAME: HER2 (Homo sapiens)
# Sequence (P04626 23-1255): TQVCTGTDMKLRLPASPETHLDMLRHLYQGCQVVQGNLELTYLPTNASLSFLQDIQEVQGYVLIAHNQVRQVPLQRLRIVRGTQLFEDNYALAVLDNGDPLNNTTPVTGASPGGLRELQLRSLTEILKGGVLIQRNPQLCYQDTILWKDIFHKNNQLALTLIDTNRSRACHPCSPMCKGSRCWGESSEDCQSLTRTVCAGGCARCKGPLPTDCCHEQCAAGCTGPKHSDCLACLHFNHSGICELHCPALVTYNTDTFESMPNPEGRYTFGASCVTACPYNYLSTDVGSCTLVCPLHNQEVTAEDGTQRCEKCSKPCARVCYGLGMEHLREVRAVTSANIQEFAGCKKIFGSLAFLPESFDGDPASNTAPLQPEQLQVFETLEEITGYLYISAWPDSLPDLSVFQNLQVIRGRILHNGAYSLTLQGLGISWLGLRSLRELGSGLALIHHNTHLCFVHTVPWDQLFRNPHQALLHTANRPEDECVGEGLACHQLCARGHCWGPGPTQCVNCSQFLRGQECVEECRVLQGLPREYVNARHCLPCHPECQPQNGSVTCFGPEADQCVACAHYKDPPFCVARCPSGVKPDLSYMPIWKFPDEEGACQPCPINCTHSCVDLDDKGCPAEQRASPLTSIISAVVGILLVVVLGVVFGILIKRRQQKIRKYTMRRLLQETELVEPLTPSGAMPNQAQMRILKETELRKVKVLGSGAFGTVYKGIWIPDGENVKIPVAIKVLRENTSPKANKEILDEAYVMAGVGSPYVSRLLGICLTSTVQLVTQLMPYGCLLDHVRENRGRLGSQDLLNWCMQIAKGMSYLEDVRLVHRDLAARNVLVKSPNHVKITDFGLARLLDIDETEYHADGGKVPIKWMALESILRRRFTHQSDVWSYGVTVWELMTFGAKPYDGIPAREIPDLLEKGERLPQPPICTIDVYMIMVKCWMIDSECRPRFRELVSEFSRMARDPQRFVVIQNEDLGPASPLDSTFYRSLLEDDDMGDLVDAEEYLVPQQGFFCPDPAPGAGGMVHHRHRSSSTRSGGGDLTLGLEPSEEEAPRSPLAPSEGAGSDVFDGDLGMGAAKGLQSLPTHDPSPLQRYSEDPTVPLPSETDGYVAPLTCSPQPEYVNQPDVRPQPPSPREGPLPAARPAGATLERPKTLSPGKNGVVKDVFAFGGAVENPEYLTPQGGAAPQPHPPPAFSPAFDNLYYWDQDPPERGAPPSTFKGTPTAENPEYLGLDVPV
# ASSAY_PROCEDURE: Inhibitory effect (in vitro) on HER2 phosphorylation activity
# EXPERIMENTAL_CONDITIONS: recombinant human HER2, ATP 5 μM, 25° C. 30 minutes
# pIC50 is unitless: minus log10 of the molar concentration; print number only

Use the examples below as a reference point.
C=CC(=O)N1C[C@H](n2c(C#CC)c(C(=O)NC(C)(C)c3ccccc3)c3c(N)ncnc32)C[C@@H]1C [Example 3]; 8.24
C=CC(=O)N1C[C@H](n2c(C#CC)c(C(=O)N[C@@H](c3ccccc3)C(F)(F)F)c3c(N)ncnc32)C[C@@H]1C [Example 8]; 8.00
C=CC(=O)N1C[C@H](n2c(C#CC)c(C(=O)NC(C)(C)c3ccccc3F)c3c(N)ncnc32)C[C@@H]1C [Example 5]; 8.11
C=CC(=O)N1C[C@H](n2c(C#CC(C)(C)C)c(C(=O)N[C@H](C)c3ccccc3)c3c(N)ncnc32)C[C@@H]1C [Example 12]; 8.47
C=CC(=O)N1C[C@H](n2c(C#CC)c(C(=O)N[C@H](C)c3cc(F)cc(F)c3)c3c(N)ncnc32)C[C@@H]1C [Example 1]; 8.57

For C=CC(=O)N1C[C@H](n2c(C#CC)c(C(=O)N[C@H](C)c3ccccc3)c3c(N)ncnc32)C[C@@H]1C [Example 2] , what is its reported pIC50?
8.60

Can you check C=CC(=O)N1C[C@H](n2c(C#CC3CC3)c(C(=O)N[C@H](C)c3ccccc3)c3c(N)ncnc32)C[C@@H]1C [Example 11] next?
8.49

* * *

Entries and their GI50
# SYSTEM_NAME: Ba/F3-HER2insYVMA cells (Homo sapiens, UniProt P04626, DUP772-775, cells depend on it)
# Sequence (P04626 with tags, fused parts or gaps DUP772-775): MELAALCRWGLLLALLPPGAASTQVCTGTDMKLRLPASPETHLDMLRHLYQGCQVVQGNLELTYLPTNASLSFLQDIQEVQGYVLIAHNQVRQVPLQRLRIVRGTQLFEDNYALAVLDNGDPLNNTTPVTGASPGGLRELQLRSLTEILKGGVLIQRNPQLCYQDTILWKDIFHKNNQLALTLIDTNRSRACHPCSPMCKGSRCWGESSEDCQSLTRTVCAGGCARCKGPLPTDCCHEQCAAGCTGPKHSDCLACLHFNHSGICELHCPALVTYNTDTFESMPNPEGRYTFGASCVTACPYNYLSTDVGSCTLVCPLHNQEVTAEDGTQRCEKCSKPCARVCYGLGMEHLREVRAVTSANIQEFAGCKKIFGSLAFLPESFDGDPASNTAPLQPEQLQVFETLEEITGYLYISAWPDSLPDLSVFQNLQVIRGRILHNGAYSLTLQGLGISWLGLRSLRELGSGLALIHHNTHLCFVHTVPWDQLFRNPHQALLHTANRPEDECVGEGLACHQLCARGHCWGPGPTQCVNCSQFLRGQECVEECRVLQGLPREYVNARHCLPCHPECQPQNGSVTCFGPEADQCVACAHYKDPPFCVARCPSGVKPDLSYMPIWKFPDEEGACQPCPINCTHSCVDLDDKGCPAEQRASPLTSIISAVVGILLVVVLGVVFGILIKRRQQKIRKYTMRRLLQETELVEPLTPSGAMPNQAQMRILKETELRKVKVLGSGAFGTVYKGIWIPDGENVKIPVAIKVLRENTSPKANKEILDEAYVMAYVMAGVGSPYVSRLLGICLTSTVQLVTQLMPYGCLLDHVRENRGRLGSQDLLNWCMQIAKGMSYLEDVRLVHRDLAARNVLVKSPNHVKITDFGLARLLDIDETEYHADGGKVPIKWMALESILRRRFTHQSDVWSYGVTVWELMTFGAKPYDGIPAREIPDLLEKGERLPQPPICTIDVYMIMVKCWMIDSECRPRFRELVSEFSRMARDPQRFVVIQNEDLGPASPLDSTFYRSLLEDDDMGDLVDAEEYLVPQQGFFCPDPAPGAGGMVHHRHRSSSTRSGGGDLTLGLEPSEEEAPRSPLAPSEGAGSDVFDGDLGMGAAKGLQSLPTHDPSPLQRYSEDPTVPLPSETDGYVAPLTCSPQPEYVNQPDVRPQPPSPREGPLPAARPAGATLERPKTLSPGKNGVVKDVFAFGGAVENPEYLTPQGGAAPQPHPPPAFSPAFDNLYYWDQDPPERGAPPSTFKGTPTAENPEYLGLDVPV
# ASSAY_PROCEDURE: Growth inhibitory activity against HER2 exon 20 insertion mutant expressing cell line
# Assay type: cell-based, mouse
# EXPERIMENTAL_CONDITIONS: 3 days, CellTiter-Glo 2.0, read-out: HER2ex20insYVMA cell growth inhibitory activity IC50 value
# Procedure: Growth inhibitory activity against the HER2 exon 20 insertion mutant was measured using Ba/F3 cells that were a mouse B lymphocyte precursor cell line, into which a human HER2 exon 20 insertion mutant gene had been introduced. The Ba/F3 cells were maintained in an RPMI-1640 medium (Thermo Fisher Scientific) supplemented with 10% fetal bovine serum (FBS), 100 U/mL penicillin, 100 μg/mL streptomycin (Thermo Fisher Scientific) and 1 ng/mL mouse interleukin-3 (mIL-3) (CST). […]

C=CC(=O)N1C[C@H](n2c(C#CC)c(C(=O)N[C@H](C)c3ccc(F)cc3F)c3c(N)ncnc32)C[C@@H]1C [Example 7]; 40 nM

For C=CC(=O)N1C[C@H](n2c(C#CC3CC3)c(C(=O)NC(C)(C)c3ccccc3)c3c(N)ncnc32)C[C@@H]1C [Example 9] , what is its reported GI50?
24 nM

Can you check C=CC(=O)N1C[C@H](n2c(C#CC)c(C(=O)N[C@@H](c3ccccc3)C(F)(F)F)c3c(N)ncnc32)C[C@@H]1C [Example 8] next?
26 nM

Can you check C=CC(=O)N1C[C@H](n2c(C#CC(C)(C)OC)c(C(=O)N[C@H](C)c3ccccc3)c3c(N)ncnc32)C[C@@H]1C [Example 13] next?
23 nM

Can you check CC#Cc1c(C(=O)Nc2ccc(COC)cc2)c2c(N)ncnc2n1C1(C)CC1 [Comp. Ex. 1, reference compound] next?
> 10000 nM

Can you check C=CC(=O)N1C[C@H](n2c(C#CC)c(C(=O)N[C@H](C)c3cc(F)cc(F)c3)c3c(N)ncnc32)C[C@@H]1C [Example 1] next?
17 nM

Can you check C=CC(=O)N1C[C@H](n2c(C#CC3CC3)c(C(=O)N[C@H](C)c3ccccc3)c3c(N)ncnc32)C[C@@H]1CC [Example 17] next?
20 nM

Can you check C=CC(=O)N1C[C@H](n2c(C#CC3CC3)c(C(=O)N[C@H](C)c3ccccc3)c3c(N)ncnc32)C[C@@H]1COC [Example 18] next?
14 nM

Can you check C=CC(=O)N1C[C@H](n2c(C#CC)c(C(=O)N[C@H](CC)c3ccccc3)c3c(N)ncnc32)C[C@@H]1C [Example 4] next?
20 nM
